tested on: MS2 coat protein; assay: apparent KD of MS2 coat protein; designed switch direction (-1 OFF switch, 1 ON switch): -1; higher = weaker reporter binding; settings: input ligand: FMN 200 uM

# sequence.code, assay.target, scale.unit, apparent KD of MS2 coat protein
records = [
    ("AGCGUGGAGACAGGAUAUGAGAAUAGAUAGAACUCAGAAGGGUCACAUGAGGAUCACCCAUGUAAAGUCUUGAGGCUGCGUGGU [Prohibition 7 - Jieux - Exclusion NG 1] (Eterna round: R96, puzzle: Exclusion NG 1)", "MS2 coat protein", "µM", 0.341),
    ("GUUAAUUGUCAGAUGGGUGACAUGAGGAUCACCCAUGUCACAAGCUUUUUGCUCGUCUUAUAAUUAACCCAUCUGAC [Stov1/11-A3] (Eterna round: R97, puzzle: Sensor, turn-off variant 1)", "MS2 coat protein", "µM", 0.0136),
    ("GUCGUGCGGCAGUGCUGUACGAGUACAUGAGGAUCACCCAUGUAGGAUAUGGUUCGUUUUGCGUGCUAGAAGGGCGUGCGUUGA [Excl-NG3-LRO20] (Eterna round: R96, puzzle: Exclusion NG 3)", "MS2 coat protein", "µM", 0.02),
    ("UUAAUUAAUUUAAUAUAAGAUCACAUGAGGAUCACCCAUGUAUAGGAUAUCAGCUCGUUUAGAGCUGAGAAGGAUACAUAAUAU [ExNG3/2-B2] (Eterna round: R96, puzzle: Exclusion NG 3)", "MS2 coat protein", "µM", 0.292),
    ("AGCCACAGAGGAUAUACAUACAUCCAGUAGCAGAUAUUGCUACAUGAGGAUCACCCAUGUAGAAGGCUGUGGCA [Omei Ex2 BD B21] (Eterna round: R97, puzzle: Exclusion 2)", "MS2 coat protein", "µM", 0.139),
    ("AUUUAUGGAGGAUAUACUUGAGGAUCACCCAAGUGGAGUCCCAAAUGGGCGGUAAAUAGUAGAAGGCCGUCUUA [jl-ex3-4.49 ViennaUCT mod] (Eterna round: R97, puzzle: Exclusion 3)", "MS2 coat protein", "µM", 0.0172),
    ("AAAGCACAUGAGGAUCACCCAUGUGAGGAUAUACAGAAAAUCUCGUUUACGAGGACUCGUAGAAGGCGCAGUGC [Eternabot (L2) Solution 19] (Eterna round: R97, puzzle: Exclusion 1)", "MS2 coat protein", "µM", 0.0209),
    ("AAUCCUAGCGUAAGGAUAUCAAAACUAUCCCGUUAUGAGAAGGUACAUGAGGAUCACCCAUGUUAAUGGGAUAA [BmEX4 A.19] (Eterna round: R97, puzzle: Brourd's mod of Exclusion 4)", "MS2 coat protein", "µM", 0.0202),
    ("CGUUUGCAUUUUGCUCGUCACAUGAGGAUCACCCAUGUUAUGCUACAGUACGCUAGGAUCGGCGUCUGAGGGCUUUA [Eternabot (Original) Solution 1] (Eterna round: R97, puzzle: Sensor, turn-off variant 1)", "MS2 coat protein", "µM", 0.0252),
    ("CCAUCACAUGAGGAUCACCCAUGUUAGGAUAUCAUUAGCCUCGGAGCUAUAGCGAGGUUGAGAAGGGACAUGUC [Eternabot (L1) Solution 87] (Eterna round: R97, puzzle: Exclusion 1)", "MS2 coat protein", "µM", 0.0199),
    ("UGUUGUCGCGCAGGAUAUGAGGAUCACCCAUAUACAGGAUAUGAAAAGAAGGGUCUGAGGAUUACCCAGAAGGGCGGGACAACU [pwkr exNG2 2xF5 2xFMN.26] (Eterna round: R96, puzzle: Exclusion NG 2)", "MS2 coat protein", "µM", 0.386),
    ("GGAUAAAAUCGAGGAUAUACGCACCACUAACGAGUAGAAGGCGAACAUGAGGAUCACCCAUGUGAGUUCUCAAUAAGAAACACG [Prohibition 68 - Jieux - Exclusion NG 1] (Eterna round: R96, puzzle: Exclusion NG 1)", "MS2 coat protein", "µM", 0.0405),
]
